# Tested on: K98450-129-R-PDC multicell spheroids, viability;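 note: spheroids exposed to agents for seven days before read-out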
# assay text: Anticancer human tumor K98450-129-R-PDC patient-derived colon adenocarcinoma cell line growth inhibition [PI3K]
# assay conditions: second compound 0.0316 µM; first compound 0.0316 µM; stronger effect = lower value
Property: viability, T/C; scope: individual compounds
readout label: viability, T/C (%)

1) C#Cc1c(F)ccc2cc(O)cc(-c3ncc4c(N5CC6CCC(C5)N6)nc(OCC56CCCN5CC(F)C6)nc4c3F)c12 (stereo not given) + CC(Nc1ccc2c(c1)OCCn1cc(N3C(=O)OCC3C(F)F)nc1-2)C(N)=O; 104
2) CC1(C)CCC(CN2CCN(c3ccc(C(=O)NS(=O)(=O)c4ccc(NCC5CCOCC5)c([N+](=O)[O-])c4)c(Oc4cnc5[nH]ccc5c4)c3)CC2)=C(c2ccc(Cl)cc2)C1 + CC(Nc1ncnc2nc[nH]c12)c1cc2cccc(Cl)c2c(=O)n1-c1ccccc1; 96.2
3) CC1(C)CCC(Nc2ncc(C(F)(F)F)c(-c3c[nH]c4c(P(C)(C)=O)c(C#N)ccc34)n2)CN1 (stereo not given) + Cc1nc(NC(=O)N2CCCC2C(N)=O)sc1-c1ccnc(C(C)(C)C(F)(F)F)c1; 118
4) CCCS(=O)(=O)Nc1ccc(F)c(C(=O)c2c[nH]c3ncc(-c4ccc(Cl)cc4)cc23)c1F + CC(Nc1ccc2c(c1)OCCn1cc(N3C(=O)OCC3C(F)F)nc1-2)C(N)=O; 97
5) Cn1ncnc1[C@H]1c2n[nH]c(=O)c3cc(F)cc(c23)N[C@@H]1c1ccc(F)cc1 + Cc1nc(NC(=O)N2CCCC2C(N)=O)sc1-c1ccnc(C(C)(C)C(F)(F)F)c1; 101

Origin of the recorded values: PubChem BioAssay AID1963961
